Molecular target: PcrV of P. aeruginosa strain 6077 (Pseudomonas aeruginosa strain 6077)
Experiment: cell-based or functional assay
outcome.measure: A549 Cytotoxicity Assay (IC50)

Reference set, count: 3
1. H1H29339P (antibody, V domains shown) VH: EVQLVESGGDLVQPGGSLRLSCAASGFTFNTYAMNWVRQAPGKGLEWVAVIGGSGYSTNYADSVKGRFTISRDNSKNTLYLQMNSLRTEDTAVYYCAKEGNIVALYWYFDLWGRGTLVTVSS VL: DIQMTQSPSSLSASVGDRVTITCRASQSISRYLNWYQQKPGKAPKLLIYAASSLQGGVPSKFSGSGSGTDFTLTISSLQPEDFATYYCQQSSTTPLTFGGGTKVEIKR: 0.0333 nM
2. H1H29329P (antibody, V domains shown) VH: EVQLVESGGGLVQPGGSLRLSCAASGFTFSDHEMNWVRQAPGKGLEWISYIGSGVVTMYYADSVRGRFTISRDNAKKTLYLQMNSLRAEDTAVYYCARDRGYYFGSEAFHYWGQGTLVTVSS VL: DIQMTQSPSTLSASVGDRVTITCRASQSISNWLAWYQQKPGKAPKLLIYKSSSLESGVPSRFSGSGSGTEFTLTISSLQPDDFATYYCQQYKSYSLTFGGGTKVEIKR: 10.8 nM
3. REGN3514 (antibody, V domains shown, also called Control I; Control I-REGN3514) VH: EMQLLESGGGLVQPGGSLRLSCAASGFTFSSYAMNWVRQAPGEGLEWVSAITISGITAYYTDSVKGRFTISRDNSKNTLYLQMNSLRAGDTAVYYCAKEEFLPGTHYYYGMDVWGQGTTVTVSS VL: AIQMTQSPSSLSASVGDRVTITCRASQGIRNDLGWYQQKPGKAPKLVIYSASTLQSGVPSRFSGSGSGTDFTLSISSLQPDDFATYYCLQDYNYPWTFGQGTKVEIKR: 0.807 nM

Please look at the following binder next.
Bench note: what A549 Cytotoxicity Assay (IC50) did H1H29332P (antibody, V domains shown) VH: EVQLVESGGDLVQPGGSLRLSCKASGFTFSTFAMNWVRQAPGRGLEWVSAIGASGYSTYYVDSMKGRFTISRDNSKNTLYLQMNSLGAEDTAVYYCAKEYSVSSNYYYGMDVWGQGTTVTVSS VL: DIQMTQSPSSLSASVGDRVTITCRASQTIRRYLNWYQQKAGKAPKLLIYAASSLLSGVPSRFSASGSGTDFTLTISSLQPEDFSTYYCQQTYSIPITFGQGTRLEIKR show? 6.47 nM

Values were extracted from patent US20260184768A1.
